Provenance of the data: ChEMBL document CHEMBL3352167

species on record: Cavia porcellus; assay: Selectivity ratio of Ki for guinea pig brain sigma2 receptor to Ki for guinea pig brain sigma1 receptor
// assign Met if Ratio Ki falls strictly below 4, else Not met (ties count as Not met)

- Molecule Smiles: "c1ccc(CCCN2CCN(CCc3ccc4c(c3)OCO4)CC2)cc1"
  Label Value: "Not met"
- Molecule Smiles: "COc1cccc(CCN2CCN(CCCc3ccccc3)CC2)c1"
  Label Value: "Not met"
- Molecule Smiles: "COc1cc(CCN2CCN(CCCc3ccccc3)CC2)ccc1OCc1ccccc1"
  Label Value: "Met"
- Molecule Smiles: "COc1cc(CCN2CCN(CCCc3ccccc3)CC2)ccc1OC/C=C\\I"
  Label Value: "Met"
- Molecule Smiles: "COc1cc(CCN2CCN(CCCc3ccccc3)CC2)ccc1O"
  Label Value: "Met"
- Molecule Smiles: "CCCOc1ccc(CCN2CCN(CCCc3ccccc3)CC2)cc1OC"
  Label Value: "Met"

###

experiment: Selectivity ratio of Ki for mouse SERT to Ki for guinea pig brain sigma1 receptor
// assign Yes if Ratio Ki falls strictly below 200, else No (ties count as No)

- Molecule Smiles: "COc1cc(CCN2CCN(CCCc3ccccc3)CC2)ccc1OC/C=C/I"
  Label Value: "Yes"
- Molecule Smiles: "COc1cccc(CCN2CCN(CCCc3ccccc3)CC2)c1"
  Label Value: "No"
- Molecule Smiles: "CCCOc1ccc(CCN2CCN(CCCc3ccccc3)CC2)cc1OC"
  Label Value: "Yes"
- Molecule Smiles: "c1ccc(CCCN2CCN(CCc3ccc4c(c3)OCO4)CC2)cc1"
  Label Value: "Yes"
- Molecule Smiles: "COc1ccc(CCN2CCN(CCCc3ccccc3)CC2)cc1"
  Label Value: "No"
- Molecule Smiles: "C=CCOc1ccc(CCN2CCN(CCCc3ccccc3)CC2)cc1OC"
  Label Value: "Yes"
- Molecule Smiles: "COc1cc(CCN2CCN(CCCc3ccccc3)CC2)ccc1OCc1ccccc1"
  Label Value: "Yes"

###

assay: Selectivity ratio of Ki for mouse DAT to Ki for guinea pig brain sigma1 receptor

- Molecule Smiles: "C=CCOc1ccc(CCN2CCN(CCCc3ccccc3)CC2)cc1OC"
  Ratio Ki: 69
- Molecule Smiles: "CCCOc1ccc(CCN2CCN(CCCc3ccccc3)CC2)cc1OC"
  Ratio Ki: 71
- Molecule Smiles: "COc1cc(CCN2CCN(CCCc3ccccc3)CC2)ccc1OCCCc1ccccc1"
  Ratio Ki: 5
- Molecule Smiles: "COc1cc(CCN2CCN(CCCc3ccccc3)CC2)ccc1OCc1ccccc1"
  Ratio Ki: 6

###

Below is a list of entries, each paired with its recorded pKi value.
target: Sigma non-opioid intracellular receptor 1 (Cavia porcellus, UniProt Q60492); test: Displacement of [3H]-(+)-pentazocine from sigma1 receptor in guinea pig brain membrane after 150 mins by scintillation counting analysis
Sequence (Q60492 whole entry): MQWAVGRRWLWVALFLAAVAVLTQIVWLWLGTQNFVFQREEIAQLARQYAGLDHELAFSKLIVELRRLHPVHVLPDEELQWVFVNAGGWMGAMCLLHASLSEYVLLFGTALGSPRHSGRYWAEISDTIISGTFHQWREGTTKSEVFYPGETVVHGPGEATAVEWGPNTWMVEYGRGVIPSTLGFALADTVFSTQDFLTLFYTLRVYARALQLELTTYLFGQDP
pKi: −log10 of the molar value.

- Molecule Smiles: "COc1cc(CCN2CCN(CCCc3ccccc3)CC2)ccc1OCCCc1ccccc1"
  pKi: 7.73
- Molecule Smiles: "COc1cc(CCN2CCN(CCCc3ccccc3)CC2)ccc1OCCBr"
  pKi: 7.60
- Molecule Smiles: "COc1cc(CCN2CCN(CCCc3ccccc3)CC2)ccc1OCc1ccccc1"
  pKi: 7.68
- Molecule Smiles: "Clc1ccc(CCN2CCN(CCCc3ccccc3)CC2)cc1Cl"
  pKi: 8.66
- Molecule Smiles: "COc1cc(CCN2CCN(CCCc3ccccc3)CC2)ccc1OCCF"
  pKi: 8.10
- Molecule Smiles: "COc1cc(CCN2CCN(CCCc3ccccc3)CC2)ccc1OCCc1ccccc1"
  pKi: 7.88

###

organism: Cavia porcellus; assay: Selectivity ratio of Ki for guinea pig brain sigma2 receptor to Ki for guinea pig brain sigma1 receptor

- Molecule Smiles: "COc1cc(CCN2CCN(CCCc3ccccc3)CC2)ccc1OCCCc1ccccc1"
  Ratio Ki: 1.3
- Molecule Smiles: "COc1cc(CCN2CCN(CCCc3ccccc3)CC2)ccc1OCCF"
  Ratio Ki: 14.1
- Molecule Smiles: "c1ccc(CCCN2CCN(CCc3ccc4c(c3)OCCO4)CC2)cc1"
  Ratio Ki: 3.4
- Molecule Smiles: "COc1cc(CCN2CCN(CCCc3ccccc3)CC2)ccc1OCCBr"
  Ratio Ki: 1.1
